# target: rat PAR2 (Rattus norvegicus)
# Construct: a rat KNRK cell line with endogenous expression of rat PAR2; host or cells: rat KNRK cells
# Sequence (Q63645 26-397): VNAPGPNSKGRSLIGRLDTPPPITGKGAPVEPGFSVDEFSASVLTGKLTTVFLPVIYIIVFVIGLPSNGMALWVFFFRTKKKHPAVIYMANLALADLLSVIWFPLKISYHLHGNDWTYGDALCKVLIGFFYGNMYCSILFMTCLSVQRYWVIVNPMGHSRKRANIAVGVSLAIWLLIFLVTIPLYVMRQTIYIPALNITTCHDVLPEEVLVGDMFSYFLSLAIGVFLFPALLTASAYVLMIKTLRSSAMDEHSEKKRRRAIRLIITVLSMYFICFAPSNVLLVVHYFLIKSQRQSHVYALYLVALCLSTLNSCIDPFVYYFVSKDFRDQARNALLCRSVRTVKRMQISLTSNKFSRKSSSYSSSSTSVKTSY
# assay summary: Ca^2+ flux assay, inhibition of SLIGRL-NH2 activation in rat KNRK cells
# Assay type: cell-based
# condition details: SLIGRL-NH2, rat PAR2 in KNRK cells; mean ± s.e.m.; read-out: Ca^2+ flux (rPAR2) pIC50 (converted)
assay readout: IC50 (nM)

{"columns": ["mol smiles", "IC50 (nM)"],
 "data": [
  ["C[C@@H](C1CCCCC1)n1c(-c2cc3c(cc2Br)OCO3)nc2cc(C(=O)Nc3ccc(C#N)cc3)ccc21", 3.16],
  ["C[C@@H](C1CCCCC1)n1c(-c2cc3c(cc2Br)OCO3)nc2cc(C(=O)Nc3ccncc3)ccc21", 5.01]
]}

A: C[C@@H](C1CCCCC1)n1c(-c2cc3c(cc2Br)OCO3)nc2cc(C(=O)Nc3ccccc3)ccc21
B: C[C@@H](C1CCOCC1)n1c(-c2cc3c(cc2Br)OCO3)nc2cc(C(=O)Nc3ccc(C#N)cc3)ccc21
*Q* When A and B are compared, which has the higher number for IC50? Kindly state the label of the option you pick.
*A* A

Ref: paper PMC7747594
